B1: F1*; the commonest letter at each place (parent)
chain: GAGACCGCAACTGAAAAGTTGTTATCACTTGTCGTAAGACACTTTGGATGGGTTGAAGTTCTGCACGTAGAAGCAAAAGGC

# Variants of: B1
# experiment summary: fraction ligated after 30 min (ligated reads / total reads); higher = more ligase activity
# assay context: with F1*sub RNA substrate (template-directed ligation), 42 °C
Classify by measured fraction ligated: Condition met if it is equal to or exceeds 0.8, Condition not met if it is smaller.

// query Kindly determine if fraction ligated recorded for T25G C28A is above or exactly 0.8.
// result Condition not met

// query Again, but for T43C A48C
// result Condition not met

// query Again, but for A36T A41C
// result Condition not met

// query Again, but for T30A T45C
// result Condition not met

// query Again, but for A24G A27C
// result Condition not met

***
// query Kindly determine if fraction ligated recorded for T35C A56C is above or exactly 0.8.
// result Condition not met

// query Again, but for T30A G31A
// result Condition met

// query Again, but for T23G T32G
// result Condition met

// query Again, but for A37C G38A
// result Condition met

// query Again, but for C33G T45G
// result Condition not met

// query Again, but for T49C A56G
// result Condition not met

// query Again, but for T23A T25A
// result Condition not met

// query Again, but for T25A A36G
// result Condition not met

// query Again, but for G31C G47C
// result Condition not met

// query Again, but for A36T G38T
// result Condition met

// query Again, but for T35A A57G
// result Condition met

// query Again, but for C33A T49C
// result Condition not met

// query Again, but for T25C T43C
// result Condition not met

// query Again, but for T32G A56C
// result Condition not met
